- PROTOCOL NOTES: Cytotoxicity against human HCT116 cells assessed as growth inhibition at 3 ug/ml after 48 hrs by MTT assay relative to control
- Assay type: cell-based, HCT-116
- TEST SETTINGS: read-out: GI
MEASUREMENT NAME: inhibition at 48 h, 3 ug/ml (%)
Give the value, in units of %, as a plain number.

Consider the worked cases shown below.
INSERT INTO measurements (smiles_notation, unit_text, recorded_value) VALUES
  ('O=C1/C(=C/c2cc3ccccc3nc2Cl)CNC/C1=C\c1cc2ccccc2nc1Cl', '%', 0),
  ('Cc1ccc2cc(/C=C3\CNC/C(=C\c4cc5ccc(C)cc5nc4Cl)C3=O)c(Cl)nc2c1', '%', 29.7),
  ('COc1ccc2nc(Cl)c(/C=C3\CN(C)C/C(=C\c4cc5cc(OC)ccc5nc4Cl)C3=O)cc2c1', '%', -2.1),
  ('Cc1ccc2cc(/C=C3\CN(C)C/C(=C\c4cc5ccc(C)cc5nc4Cl)C3=O)c(Cl)nc2c1', '%', 12.9),
  ('Cc1cccc2cc(/C=C3\CN(C)C/C(=C\c4cc5cccc(C)c5nc4Cl)C3=O)c(Cl)nc12', '%', -4.3);

Q: Tell me its inhibition at 48 h, 3 ug/ml given COc1ccc2cc(/C=C3\CN(C)C/C(=C\c4cc5ccc(OC)cc5nc4Cl)C3=O)c(Cl)nc2c1 as the entry.
Ans: -8.6

Q: Tell me its inhibition at 48 h, 3 ug/ml given Cc1ccc2nc(Cl)c(/C=C3\CN(C)C/C(=C\c4cc5cc(C)ccc5nc4Cl)C3=O)cc2c1 as the entry.
Ans: 12.5
